Ref: patent US20250312352A1

Exercise: for every item that follows, state its recorded pEC50.
- Target or system: GLP-1R (Homo sapiens, UniProt P43220)
- Sequence (P43220 24-463): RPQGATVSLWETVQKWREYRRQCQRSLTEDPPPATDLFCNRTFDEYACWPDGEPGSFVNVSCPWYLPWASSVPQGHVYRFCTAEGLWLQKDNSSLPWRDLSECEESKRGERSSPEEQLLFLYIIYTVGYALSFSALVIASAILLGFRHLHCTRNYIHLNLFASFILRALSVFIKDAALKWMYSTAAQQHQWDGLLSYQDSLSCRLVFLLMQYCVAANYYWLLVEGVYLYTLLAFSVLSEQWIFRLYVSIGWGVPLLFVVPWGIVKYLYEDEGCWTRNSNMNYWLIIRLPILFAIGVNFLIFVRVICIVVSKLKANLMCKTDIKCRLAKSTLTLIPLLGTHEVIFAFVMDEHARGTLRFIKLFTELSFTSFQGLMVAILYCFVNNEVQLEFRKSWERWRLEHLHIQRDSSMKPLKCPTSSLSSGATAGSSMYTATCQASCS
- Measurement protocol: GLP-1R activation cAMP assay (Assay 1 or Assay 2)
- Assay setup: cAMP increase in CHO cells stably expressing GLP-1R; compounds run on one of the two cAMP assays
Convention used: pEC50 is expressed as -log10 of the molar concentration.

Entry O=C(O)c1ccc2nc(Cc3cc(F)c(-c4cccc(OCc5cn6cc(Cl)ccc6n5)n4)cc3F)n(C[C@@H]3CCO3)c2c1 — recorded pEC50 = 9.10

Entry NC(=O)c1cc(F)c(COc2cccc(-c3cc(F)c(Cc4nc5ccc(C(=O)O)cc5n4C[C@@H]4CCO4)cc3F)n2)cc1F , pEC50 reported as 8.59

Entry N#CC1(Cn2cc(-c3ccc(COc4cccc(-c5cc(F)c(Cc6nc7ccc(C(=O)O)cc7n6C[C@@H]6CCO6)cc5F)n4)c(F)c3)cn2)CC1 , pEC50 reported as 9.74
